# experimental.system: T1, K280-ac protein fragment (human)
# T1 construct: also called mAC
# T1 peptide: VQIINK(Ac)KLDLSN
# assay.details: ELISA on K280-ac coated at 250 ng/well, HRP anti-human IgG
Ends that are not written are not given here.
endpoint: Absorbance at 450nm at 1ug/well
One number for each entry.

Look over these answered cases.
| binder | endpoint | recorded.value |
| --- | --- | --- |
| ADEL-Y01h v02 antibody (antibody, V domains shown, Humanized antibody; It was detected with anti-human IgG; also called Y01h01v02) VH: EVQLQESGPGLVKPSQTLSLTCTVSGDSITSGYWNWIRQPPGKGLEYIGYIRYSGRTYYNPSLKSRVTISRDTSKNQFSLKLSSVTAADTAVYYCASVYFTYWGQGTLVTVSS VL: DVVMTQSPDSLAVSLGERATINCKSSQSLLDSDGKTYLNWYQQKPGQSPKRLISLVSKLDSGVPDRFSGSGSGTDFTLTISSLQAEDVAVYYCWQGSHFPYTFGQGTKLEIK | Absorbance at 450nm at 1ug/well | 1.83 |
| ADEL-Y01h v09 antibody (antibody, V domains shown, Humanized antibody; It was detected with anti-human IgG; also called Y01h01v09) VH: EVTLKESGPTLVKPTQTLTLTCTVSGDSITSGYWNWIRQPPGKALEYLAYIRYSGRTYYNPSLKSRLTITRDTSKNQVVLTMTNMDPVDTATYYCASVYFTYWGQGTLVTVSS VL: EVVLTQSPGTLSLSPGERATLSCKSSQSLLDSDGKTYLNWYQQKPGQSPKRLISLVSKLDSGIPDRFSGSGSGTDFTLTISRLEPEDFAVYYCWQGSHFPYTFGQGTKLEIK | Absorbance at 450nm at 1ug/well | 1.61 |
| ADEL-Y01h v05 antibody (antibody, V domains shown, Humanized antibody; It was detected with anti-human IgG; also called Y01h01v05) VH: EVQLQQSGPGLVKPSQTLSLTCAVSGDSITSGYWNWIRQSPSRGLEWLGYIRYSGRTYYNPSLKSRITINRDTSKNQFSLQLNSVTPEDTAVYYCASVYFTYWGQGTLVTVSS VL: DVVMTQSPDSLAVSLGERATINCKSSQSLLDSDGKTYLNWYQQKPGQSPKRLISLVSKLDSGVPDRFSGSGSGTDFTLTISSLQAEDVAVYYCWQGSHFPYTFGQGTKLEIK | Absorbance at 450nm at 1ug/well | 1.85 |
| ADEL-Y01h v03 antibody (antibody, V domains shown, Humanized antibody; It was detected with anti-human IgG; also called Y01h01v03) VH: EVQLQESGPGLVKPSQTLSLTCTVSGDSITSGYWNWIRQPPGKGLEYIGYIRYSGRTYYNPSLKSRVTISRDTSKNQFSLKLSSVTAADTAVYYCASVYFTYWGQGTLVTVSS VL: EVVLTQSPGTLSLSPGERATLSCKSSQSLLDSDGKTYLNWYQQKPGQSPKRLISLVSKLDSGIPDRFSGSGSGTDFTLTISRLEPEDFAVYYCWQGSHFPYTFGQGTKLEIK | Absorbance at 450nm at 1ug/well | 1.79 |
| ADEL-Y01h v06 antibody (antibody, V domains shown, Humanized antibody; It was detected with anti-human IgG; also called Y01h01v06) VH: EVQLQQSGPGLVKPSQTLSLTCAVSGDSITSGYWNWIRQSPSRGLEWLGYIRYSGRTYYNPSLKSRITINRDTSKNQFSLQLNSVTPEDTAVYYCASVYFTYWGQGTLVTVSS VL: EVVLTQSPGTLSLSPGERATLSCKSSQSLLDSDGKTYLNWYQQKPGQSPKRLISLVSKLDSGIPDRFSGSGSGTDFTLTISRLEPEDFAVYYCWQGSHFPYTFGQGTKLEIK | Absorbance at 450nm at 1ug/well | 1.76 |

In the following, a different binder is considered.
// Absorbance at 450nm at 1ug/well lookup, binder = ADEL-Y01h v10 antibody (antibody, V domains shown, Humanized antibody; It was detected with anti-human IgG; also called Y01h01v10) VH: EVQLVESGGGLVQPGRSLRLSCTVSGDSITSGYWNWFRQAPGKGLEYVGYIRYSGRTYYNPSLKSRFTISRDTSKNIAYLQMNSLKTEDTAVYYCASVYFTYWGQGTLVTVSS VL: DVVMTQSPLSLPVTLGQPASISCKSSQSLLDSDGKTYLNWFQQRPGQSPKRLISLVSKLDSGVPDRFSGSGSGTDFTLKISRVEAEDVGVYYCWQGSHFPYTFGQGTKLEIK , result: 1.9
